tested.system: UniProtKB O60341
experiment.summary: Inhibition of recombinant LSD1 (unknown origin) extracted from Escherichia coli BL21 (DE3) using H3K4me2 peptide as substrate in presence of […] by Amplex Red assay
pIC50: −log10 of the molar value.
The entries below are paired with their reported pIC50.

compound	prefix.operator	pIC50
C=C1C(=O)OC/C1=C\c1cn(S(=O)(=O)c2ccc(Cl)cc2)c2ccc(Cl)cc12	<	5.00
C=C1C(=O)OCC1C(O)c1cn(S(=O)(=O)c2ccc(N3C[C@@H]4C[C@H]3CN4C(=O)OC(C)(C)C)c([N+](=O)[O-])c2)c2ccc(Cl)cc12 (stereo partly drawn)	=	5.48
C=C1C(=O)OCC1C(O)c1cn(S(=O)(=O)c2ccc(N3CCCC3)c([N+](=O)[O-])c2)c2ccc(Cl)cc12 (stereo not drawn)	=	5.61
C=C1C(=O)OCC1C(O)c1cn(S(=O)(=O)c2ccc(F)c(C(F)(F)F)c2)c2ccc(Cl)cc12 (stereo not drawn)	=	6.18
C=C1C(=O)OCC1C(O)c1cn(S(=O)(=O)c2ccc(Cl)cc2Cl)c2ccc(Cl)cc12 (stereo not drawn)	=	6.44
C=C1C(=O)OCC1C(O)c1cn(S(=O)(=O)c2ccc(Cl)c([N+](=O)[O-])c2)c2ccc(Cl)cc12 (stereo not drawn)	=	7.00
C=C1C(=O)OCC1C(O)c1cn(S(=O)(=O)c2ccccc2Br)c2ccc(Cl)cc12 (stereo not drawn)	=	6.79
C=C1C(=O)OCC1C(O)c1cn(S(=O)(=O)c2ccc(CNCc3ccc(Cl)cc3)cc2)c2ccc(Cl)cc12 (stereo not drawn)	=	5.63
C=C1C(=O)OCC1C(=O)c1cn(S(=O)(=O)c2ccc(Cl)cc2)c2ccc(Cl)cc12 (stereo not drawn)	<	5.00
C=C1C(=O)OCC1C(O)c1cn(S(=O)(=O)c2ccc(OC)cc2)c2ccc(Cl)cc12 (stereo not drawn)	=	6.07
O=S(=O)(c1ccc(Cl)cc1)n1cc(CNC2CC2)c2cc(Cl)ccc21	<	5.00
C=C1C(=O)OCC1C(O)c1cn(S(=O)(=O)c2ccc(N3CCC(NC(=O)OC(C)(C)C)C3)c([N+](=O)[O-])c2)c2ccc(Cl)cc12 (stereo not drawn)	=	6.36
C=C1C(=O)OCC1C(O)c1cn(S(=O)(=O)c2ccc(NCCC)c([N+](=O)[O-])c2)c2ccc(Cl)cc12 (stereo not drawn)	=	6.18
C=C1C(=O)OCC1C(O)c1cn(S(=O)(=O)c2ccc(N3CCN(C)CC3)c([N+](=O)[O-])c2)c2ccc(Cl)cc12 (stereo not drawn)	=	6.33
O=S(=O)(c1ccc(Cl)cc1)n1cc(CNCC2CC2)c2cc(Cl)ccc21	<	5.00
C=C1C(=O)OCC1C(O)c1ccn(S(=O)(=O)c2ccc(C)cc2)c1 (stereo not drawn)	<	5.00
C=C1C(=O)OCC1C(O)c1cn(S(=O)(=O)c2ccc(N3CCN(CCO)CC3)c([N+](=O)[O-])c2)c2ccc(Cl)cc12 (stereo not drawn)	=	6.55
C=C1C(=O)OCC1C(O)c1cn(S(=O)(=O)CCC)c2ccc(Cl)cc12 (stereo not drawn)	=	5.18
C=C1C(=O)OCC1C(O)c1cn(S(=O)(=O)c2ccc(F)cc2)c2ccc(Cl)cc12 (stereo not drawn)	=	5.87
C=C1C(=O)OCC1C(O)c1cn(S(=O)(=O)c2ccc(NC)c([N+](=O)[O-])c2)c2ccc(Cl)cc12 (stereo not drawn)	=	7.05
C=C1C(=O)OCC1C(O)c1cn(S(=O)(=O)c2ccc(N3CCN(CC)CC3)c([N+](=O)[O-])c2)c2ccc(Cl)cc12 (stereo not drawn)	=	6.54
C=C1C(=O)OCC1C(O)c1cn(S(=O)(=O)c2ccccc2[N+](=O)[O-])c2ccc(Cl)cc12 (stereo not drawn)	=	6.12
C=C1C(=O)OCC1C(O)c1cn(S(=O)(=O)c2ccc(Cl)c(Cl)c2)c2ccc(Cl)cc12 (stereo not drawn)	=	6.24
C=C1C(=O)OCC1C(O)c1cn(S(C)(=O)=O)c2ccc(Cl)cc12 (stereo not drawn)	=	5.04
C=C1C(=O)OCC1C(O)c1cn(S(=O)(=O)c2ccc(N3CCCN(C(=O)OC(C)(C)C)CC3)c([N+](=O)[O-])c2)c2ccc(Cl)cc12 (stereo not drawn)	=	5.30
C=C1C(=O)OCC1C(O)c1cn(S(=O)(=O)c2ccc(NCC(C)C)c([N+](=O)[O-])c2)c2ccc(Cl)cc12 (stereo not drawn)	=	6.88
C=C1C(=O)OCC1C(O)c1cn(S(=O)(=O)c2ccc(Br)cc2)c2ccc(Cl)cc12 (stereo not drawn)	=	5.94
C=C1C(=O)OCC1C(O)c1cn(S(=O)(=O)c2ccc(Cl)cc2)c2ccc(Cl)cc12 (stereo not drawn)	=	6.03
C=C1C(=O)OCC1C(O)c1cn(S(=O)(=O)c2cccc(Cl)c2)c2ccc(Cl)cc12 (stereo not drawn)	=	6.13
C=C1C(=O)OCC1C(O)c1cn(S(=O)(=O)c2ccc(N(C)C)c([N+](=O)[O-])c2)c2ccc(Cl)cc12 (stereo not drawn)	=	7.10
C=C1C(=O)OCC1C(O)c1cn(S(=O)(=O)c2ccc(N3CCCC(NC(=O)OC(C)(C)C)C3)c([N+](=O)[O-])c2)c2ccc(Cl)cc12 (stereo not drawn)	=	6.15
C=C1C(=O)OCC1C(O)c1cn(S(=O)(=O)c2c(Cl)cccc2Cl)c2ccc(Cl)cc12 (stereo not drawn)	=	6.01
C=C1C(=O)OCC1C(O)c1cn(S(=O)(=O)c2ccccc2Cl)c2ccc(Cl)cc12 (stereo not drawn)	=	6.44

====

tested.system: Lysine-specific histone demethylase 1A (Homo sapiens)
experiment.summary: Inhibition of recombinant LSD1 (unknown origin) extracted from Escherichia coli BL21 (DE3) using H3K4me2 peptide as substrate in presence of […] by Amplex Red assay
pIC50: −log10 of the molar value.
Assign class 1 to entries whose pIC50 meets or exceeds 6; assign class 0 to the rest.

compound	tested.system	class.assignment
C=C1C(=O)OCC1C(O)c1cn(S(=O)(=O)c2ccccc2F)c2ccc(Cl)cc12 (stereo not drawn)	Lysine-specific histone demethylase 1A (Homo sapiens)	class 1
C=C1C(=O)OCC1C(O)c1cn(S(=O)(=O)c2ccccc2C)c2ccc(Cl)cc12 (stereo not drawn)	Lysine-specific histone demethylase 1A (Homo sapiens)	class 1
C=C1C(=O)OCC1C(O)c1cn(S(=O)(=O)c2ccc(N3CCCCC3)c([N+](=O)[O-])c2)c2ccc(Cl)cc12 (stereo not drawn)	Lysine-specific histone demethylase 1A (Homo sapiens)	class 0
C=C1C(=O)OCC1C(O)c1cn(S(=O)(=O)c2ccc(N3CCN(C(=O)OC(C)(C)C)CC3)c([N+](=O)[O-])c2)c2ccc(Cl)cc12 (stereo not drawn)	Lysine-specific histone demethylase 1A (Homo sapiens)	class 1
C=C1C(=O)OCC1C(O)c1cn(S(=O)(=O)C2CC2)c2ccc(Cl)cc12 (stereo not drawn)	Lysine-specific histone demethylase 1A (Homo sapiens)	class 0
C=C1C(=O)OCC1C(O)c1cn(S(=O)(=O)c2ccc(Cl)c(N)c2)c2ccc(Cl)cc12 (stereo not drawn)	Lysine-specific histone demethylase 1A (Homo sapiens)	class 0
C=C1C(=O)OCC1C(O)c1cn(S(=O)(=O)c2cccc(C(F)(F)F)c2)c2ccc(Cl)cc12 (stereo not drawn)	Lysine-specific histone demethylase 1A (Homo sapiens)	class 1
C=C1C(=O)OCC1C(O)c1cn(S(=O)(=O)c2ccc(N(CCC)CCC)c([N+](=O)[O-])c2)c2ccc(Cl)cc12 (stereo not drawn)	Lysine-specific histone demethylase 1A (Homo sapiens)	class 0
C=C1C(=O)OCC1C(O)c1ccn(S(=O)(=O)c2ccc(Cl)cc2)c1 (stereo not drawn)	Lysine-specific histone demethylase 1A (Homo sapiens)	class 0
C=C1C(=O)OCC1C(O)c1ccn(S(=O)(=O)c2ccc(Br)cc2)c1 (stereo not drawn)	Lysine-specific histone demethylase 1A (Homo sapiens)	class 0
C=C1C(=O)OCC1C(O)c1cn(S(=O)(=O)c2cccc([N+](=O)[O-])c2)c2ccc(Cl)cc12 (stereo not drawn)	Lysine-specific histone demethylase 1A (Homo sapiens)	class 1
C=C1C(=O)OCC1C(O)c1cn(S(=O)(=O)c2ccc(CN3CCOCC3)cc2)c2ccc(Cl)cc12 (stereo not drawn)	Lysine-specific histone demethylase 1A (Homo sapiens)	class 1

====

tested.system: Lysine-specific histone demethylase 1A (Homo sapiens)
experiment.summary: Inhibition of LSD1 in human MKN-45 cells
Assay type: cell-based
pIC50: −log10 of the molar value.

molecule	pIC50
C=C1C(=O)OCC1C(O)c1cn(S(=O)(=O)c2ccc(N(C)C)c([N+](=O)[O-])c2)c2ccc(Cl)cc12 (stereo unspecified)	7.10

====

# IC50 per entry
tested.system: Lysine-specific histone demethylase 1A (Homo sapiens)
experiment.summary: Inhibition of recombinant LSD1 (unknown origin) extracted from Escherichia coli BL21 (DE3) using H3K4me2 peptide as substrate in presence of […] by Amplex Red assay

compound	IC50, µM
C=C1C(=O)OCC1C(O)c1cn(S(=O)(=O)c2ccc(C(F)(F)F)cc2)c2ccc(Cl)cc12 (stereo unspecified)	1.46
C=C1C(=O)OCC1C(O)c1cn(S(=O)(=O)c2ccc([N+](=O)[O-])cc2)c2ccc(Cl)cc12 (stereo unspecified)	1.38
C=C1C(=O)OCC1C(O)c1cn(S(=O)(=O)c2ccccc2)c2ccc(Cl)cc12 (stereo unspecified)	1.11
C=C1C(=O)OCC1C(O)c1cn(S(=O)(=O)c2ccc(CBr)cc2)c2ccc(Cl)cc12 (stereo unspecified)	0.933
C=C1C(=O)OCC1C(O)c1cn(S(=O)(=O)c2ccc(OC(F)(F)F)cc2)c2ccc(Cl)cc12 (stereo unspecified)	1.42
C=C1C(=O)OCC1C(O)c1cn(S(=O)(=O)c2ccc(CN3CCN(C(=O)OC(C)(C)C)CC3)cc2)c2ccc(Cl)cc12 (stereo unspecified)	1.18

Numbers sourced from ChEMBL document CHEMBL6134893.
